- condition_parameters: buffer; pH 7.4; 200.0 µM
solubility kinetic: recorded values

Worked cases, solubility kinetic given:
compound	solubility kinetic
O=C(CN1C(=O)C2C3CCC(C3)C2C1=O)OCC(=O)c1ccc(Br)cc1 (stereo not given)	> 63 µg/mL
O=C(CCc1ccc(S(=O)(=O)N2CCOCC2)cc1)Nc1ccc(F)cc1[N+](=O)[O-]	14 µg/mL
Cc1ccc(C(=O)OCC(=O)NC2CC2)s1	> 35.9 µg/mL

Would you kindly look at the next entry?
q: Name the reported solubility kinetic value associated with the compound `S=C(Nc1ccc(Cl)cc1)NC1CCCCC1`
a: 4.4 µg/mL

---

- condition_parameters: buffer; pH 7.4; 200.0 µM
Assign class by solubility kinetic: not lower than 6 µg/mL means 1; lower than 6 µg/mL means 0.

Examples from the recorded data:
molecule	class
O=C(/C=C/c1ccc([N+](=O)[O-])cc1)N1CCN(Cc2ccccc2)CC1	0
CN1CCN(C(=O)/C(=C/c2ccc(F)cc2)NC(=O)c2ccccc2)CC1	1
Cc1ccccc1-c1noc(-c2ccccc2C(=O)NCC2CCCO2)n1 (stereo unspecified)	1
CC(=O)N/C(=C\c1ccccc1)C(=O)OCC(=O)c1c(N)n(C)c(=O)n(C)c1=O	1
COC(=O)[C@@H](NC(=O)NCCC1=CCCCC1)C(C)C	1
Cc1[nH]c2ccc(C(=O)NC3CCCC3)cc2c1C	1
O=C(c1ccccc1)N1CCC2(CC1)NCCc1[nH]cnc12	1
COc1ccccc1CNC(=O)c1ccc(Cl)c(S(=O)(=O)N2CCCC2)c1	1

q: Is it the case that `COc1ccccc1-n1ccnc1SCC(=O)NCc1ccco1` has solubility kinetic reaching or exceeding 6 µg/mL?
a: 1

q: Is it the case that `O=C1c2ccccc2-c2nc3ccccc3cc21` has solubility kinetic reaching or exceeding 6 µg/mL?
a: 0

q: Is it the case that `C=CCOn1c(=O)c(-c2ccc(C)cc2)[n+]([O-])c2ccccc21` has solubility kinetic reaching or exceeding 6 µg/mL?
a: 0

q: Is it the case that `COc1ccc2c(C#N)c3ccccn3c2c1` has solubility kinetic reaching or exceeding 6 µg/mL?
a: 0

q: Is it the case that `CCOCCCNC(=O)CN1CCN(Cc2ccc(Cl)cc2)C1=O` has solubility kinetic reaching or exceeding 6 µg/mL?
a: 1

q: Is it the case that `O=C(C1CCN(S(=O)(=O)c2ccc(Cl)cc2)CC1)N1CCCC1` has solubility kinetic reaching or exceeding 6 µg/mL?
a: 1

q: Is it the case that `O=C(NC(=S)Nc1ccc([N+](=O)[O-])cc1O)C1CCCCC1` has solubility kinetic reaching or exceeding 6 µg/mL?
a: 0

q: Is it the case that CC1CN(C(=O)c2cc3cc([N+](=O)[O-])ccc3s2)CC(C)O1 (stereo unspecified) has solubility kinetic reaching or exceeding 6 µg/mL?
a: 1

q: Is it the case that COc1cc2c(cc1OC)C(c1ccccc1C(F)(F)F)CC(=O)N2 (stereo unspecified) has solubility kinetic reaching or exceeding 6 µg/mL?
a: 0

q: Is it the case that CCc1cccc(OC2OC(CO)C(O)C(O)C2NC(C)=O)c1 (stereo unspecified) has solubility kinetic reaching or exceeding 6 µg/mL?
a: 1

q: Is it the case that `CCNc1ccc(S(=O)(=O)NCCN(C)C)cc1[N+](=O)[O-]` has solubility kinetic reaching or exceeding 6 µg/mL?
a: 1

q: Is it the case that `COc1ccc(CCNC(=O)c2ccc(OCc3c(C)noc3C)c(OC)c2)cc1` has solubility kinetic reaching or exceeding 6 µg/mL?
a: 0

---

solubility kinetic: recorded values
- condition_parameters: buffer; pH 7.4; 200.0 µM
State just the number; it will be interpreted in mg/mL.

compound	solubility kinetic / mg/mL
Cc1ccc(NC(=O)CN2CCN(Cc3ccccc3)CC2)cc1Cl	0.0077
CC(C)[C@H](N[C@@H](C)c1ccccc1)c1c(O)ccc2ccccc12	0.0022
Cc1ccccc1NC(=O)c1ccno1	0.0235
CC(CCc1ccccc1)NC(=O)C(=O)c1c[nH]c2ccccc12 (centres undefined)	0.0009
Cc1ccc(Cl)cc1NC(=O)C1CC(=O)N(C(C)C)C1 (centres undefined)	0.0347
CC(=O)N1CCN(CC(C)(C)NS(=O)(=O)c2ccc(C)cc2)CC1	0.0466
O=C(c1cccc(S(=O)(=O)NCc2ccccc2)c1)N1CCN(c2ccccc2)CC1	0.0024
CCOc1ccccc1NC(=S)N1CCCc2ccccc21	0.0105
COc1ccc(NC(=O)N2CCc3cc(OC)c(OC)cc3C2)cc1	0.0091
CN(C(=O)c1c[nH]c(=O)cc1C(F)(F)F)c1ccc(Cl)c(Cl)c1	0.0408

q: Name the reported solubility kinetic value associated with the compound `CCS(=O)(=O)N1CCC(c2nc3ccccc3[nH]2)CC1`
a: 0.04

q: Name the reported solubility kinetic value associated with the compound `COc1ccccc1NC(=O)/C(C#N)=C/c1ccncc1`
a: 0.036

q: Name the reported solubility kinetic value associated with the compound `COC(=O)c1ccc(Nc2cc(C)nc3ccc(C)cc23)cc1.Cl`
a: 0.008

---

- condition_parameters: buffer; pH 7.4; 200.0 µM
Assign class by solubility kinetic: not lower than 20 µg/mL means 1 (yes); lower than 20 µg/mL means 0 (no).

compound	class
CSC1=NCCN1C(=O)c1c(-c2c(F)cccc2Cl)noc1C	1 (yes)
COc1ccccc1CNC(=S)NCc1ccc(Cl)cc1	0 (no)
COc1ccc(C(=O)/C=C2/C(=O)Nc3ccccc32)c(OC)c1	0 (no)

q: Is it the case that O=C1NN=C(c2ccccc2)CC1c1c[nH]c2ccccc12 (configuration not stated) has solubility kinetic reaching or exceeding 20 µg/mL?
a: 1 (yes)

q: Is it the case that COc1ccc(C(C)(C)C)cc1NC(=O)C1CC(=O)N(C2CCCC2)C1 (configuration not stated) has solubility kinetic reaching or exceeding 20 µg/mL?
a: 1 (yes)

q: Is it the case that `N#Cc1ccccc1NC(=O)Nc1ccccc1` has solubility kinetic reaching or exceeding 20 µg/mL?
a: 1 (yes)

q: Is it the case that `Nc1c(C(=O)N2CCCCC2)sc2nc3c(cc12)CCCC3` has solubility kinetic reaching or exceeding 20 µg/mL?
a: 1 (yes)

q: Is it the case that `CSc1nc2ncnc(N)c2[nH]1` has solubility kinetic reaching or exceeding 20 µg/mL?
a: 1 (yes)

q: Is it the case that `Cc1ccccc1/C=C/c1cc[n+](C)cc1.[I-]` has solubility kinetic reaching or exceeding 20 µg/mL?
a: 1 (yes)

q: Is it the case that `N#C/C(=C(/O)c1cccc(F)c1)c1nc2ccccc2s1` has solubility kinetic reaching or exceeding 20 µg/mL?
a: 0 (no)

q: Is it the case that `COc1ccc2cc(C3OCCO3)c(Cl)nc2c1` has solubility kinetic reaching or exceeding 20 µg/mL?
a: 1 (yes)

q: Is it the case that `Cc1ccc(CNCc2cccnc2)s1.Cl` has solubility kinetic reaching or exceeding 20 µg/mL?
a: 1 (yes)

---

- condition_parameters: buffer; pH 7.4; 200.0 µM
metric: solubility kinetic (µg/mL)
State just the number; it will be interpreted in µg/mL.

Worked cases, solubility kinetic given:
molecule	metric	reported_measurement
Cc1ccsc1/C=C(\C#N)C(=O)NCCCN1CCOCC1	solubility kinetic	45.7
COc1cc(C(=O)OCC2CC(c3ccccc3)=NO2)cc(OC)c1OC (centres undefined)	solubility kinetic	38.2
O=[N+]([O-])c1ccc(N2CCN(c3ccccc3F)CC2)nc1	solubility kinetic	0.7

q: Name the reported solubility kinetic value associated with the molecule `CC(C)CN(C(=O)C1CCC1)c1c(N)n(Cc2ccccc2)c(=O)[nH]c1=O`
a: 36.6

q: Name the reported solubility kinetic value associated with the molecule `CCOc1ccc(S(=O)(=O)c2c[nH]c3ccccc3c2=O)cc1`
a: 1.7

---

- condition_parameters: buffer; pH 7.4; 200.0 µM
log10 solubility kinetic: recorded values
Note the log scale: values are log10 of solubility kinetic expressed in µg/mL.

molecule	log10 solubility kinetic
CN(C)c1ccc(C(=O)OCC(=O)NC2CCCCCC2)cc1	0.45
O=C1CC(N2CCN(c3ccc(F)cc3)CC2)C(=O)N1Cc1ccccc1 (stereo unspecified)	1.68
CCCC(=O)Oc1ccc(-c2nccc(C(OC)OC)n2)cc1	1.66
O=C1CSC(c2ccc([N+](=O)[O-])cc2)N1c1ccc(O)cc1 (stereo unspecified)	1.67
Cc1ccccc1NC(=O)N1CCC(C(=O)c2ccc(F)cc2)CC1	1.52

q: Name the reported log10 solubility kinetic value associated with the molecule CCc1ccccc1N1C(=O)CC(Sc2nccc(C)n2)C1=O (stereo unspecified)
a: 1.67

q: Name the reported log10 solubility kinetic value associated with the molecule `COc1nc(/C=C/N(C)C)c([N+](=O)[O-])c(OC)n1`
a: 1.24

q: Name the reported log10 solubility kinetic value associated with the molecule `Cc1cc(C)c(S(=O)(=O)c2cc(F)ccc2C)c(=O)[nH]1`
a: 1.12

---

- condition_parameters: buffer; pH 7.4; 200.0 µM
solubility kinetic: recorded values

Worked cases, solubility kinetic given:
compound	solubility kinetic
S=C(NCc1ccco1)N1CCC(c2nc3ccccc3o2)CC1	11.3 µg/mL
COC(=O)/C=C/c1c(C)nc(NCc2ccccc2)nc1Cl	> 47.7 µg/mL
CCCn1c(SCC(=O)Nc2ccc(Cl)cc2)n[nH]c1=O	> 49 µg/mL
O=C(COC(=O)c1ccccc1O)NCc1ccc2c(c1)OCO2	5.7 µg/mL

q: Name the reported solubility kinetic value associated with the compound `CCCc1cc(C(=O)N2CCCN(C)CC2)cs1`
a: > 40 µg/mL

q: Name the reported solubility kinetic value associated with the compound `O=C(c1c(F)cccc1F)N(Cc1ccccc1)Cc1ccccc1`
a: 8.4 µg/mL

q: Name the reported solubility kinetic value associated with the compound `Cc1noc(-c2ccccc2)c1NC(=O)Nc1ccc(Cl)cc1`
a: 3.1 µg/mL

q: Name the reported solubility kinetic value associated with the compound `CC(=O)Nc1ccc2c(c1)ncn2-c1ccccc1`
a: > 37.7 µg/mL

q: Name the reported solubility kinetic value associated with the compound `Cc1ccccc1OCC(=O)NCCCNC(=O)c1ccncc1`
a: 39.8 µg/mL

q: Name the reported solubility kinetic value associated with the compound `CC(=O)Nc1cccc(OCCCNC(=O)C2CCC2)c1`
a: > 43.6 µg/mL

q: Name the reported solubility kinetic value associated with the compound Cc1onc(-c2ccccc2)c1C(=O)NC(C)c1ccccc1 (configuration not stated)
a: 4.9 µg/mL

q: Name the reported solubility kinetic value associated with the compound `CCc1nc2ccc(C(=O)N(C)CC(=O)Nc3ccccc3C(F)(F)F)cc2nc1CC`
a: 27.6 µg/mL
